Experiment: BSK_CASM3C_Proliferation: Cell Proliferation Assessment in the BioMAP Diversity Plus: CASM3C Assay (AID 2283047);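 further: sulforhodamine B total protein stain as relative cell number at 560 nm; sub-confluent cells exposed 48 h before staining; fitted both ways against DMSO so gain or loss of cell number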
Details: primary human coronary artery smooth muscle cells
Activity calls are given as the source filed them. How the source made its calls: active means hit-call score of the fitted dose curve at least 0.9, where 1 is the maximum; inactive means score below 0.9.
Hi there, use one of these labels in your reply, thanks! active, inactive

Prompt: // return assay outcome for CC12CC1(C)C(=O)N(c1cc(Cl)cc(Cl)c1)C2=O (stereo unspecified)
Response: inactive

----------
Read-out: Vascular cell adhesion molecule 1 (VCAM1), VCAM1 (gene 7412)
Experiment: BSK_CASM3C_VCAM1: BioMAP Diversity Plus: CASM3C Assay for Vascular cell adhesion molecule 1 (VCAM1) Biomarker Activity (AID 2283055);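 further: VCAM-1 protein level quantified by ELISA on the cells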
Details: primary human coronary artery smooth muscle cells; actives raise or lower the signal
Calls of active or inactive are those of the source. The calls were made as follows: active = hit-call score of the fitted dose curve at least 0.9, where 1 is the maximum; inactive = score below 0.9.
Hi there, use one of these labels in your reply, thanks! label 1 (active), label 0 (inactive)

{"columns": ["Compound", "Label Class"],
 "data": [
  ["CC(C)(C)CC(C)(C)c1ccc(O)cc1", "label 1"]
]}

Prompt: // return assay outcome for O=Cc1cccc(Oc2ccccc2)c1
Response: label 0

Prompt: // return assay outcome for CC1(C)Cc2cccc(O)c2O1
Response: label 0

Prompt: // return assay outcome for ClC(Cl)=C(Cl)C(Cl)=C(Cl)Cl
Response: label 1

Prompt: // return assay outcome for O=c1[nH]c(=O)[nH]c(=O)[nH]1
Response: label 0

Prompt: // return assay outcome for Cn1sc(Cl)cc1=O
Response: label 1

Prompt: // return assay outcome for CC(C)c1ccc(CO)cc1
Response: label 0

Prompt: // return assay outcome for CCOP(=S)(OCC)Oc1ccc(S(C)=O)cc1 (stereo unspecified)
Response: label 0

Prompt: // return assay outcome for CCOP(=S)(OCC)Oc1nc(Cl)c(Cl)cc1Cl
Response: label 0

Prompt: // return assay outcome for ClC1=C(Cl)[C@]2(Cl)[C@H]3[C@H]([C@H]4C=C[C@H]3C4)[C@@]1(Cl)C2(Cl)Cl
Response: label 0

Prompt: // return assay outcome for NC(=O)O
Response: label 0

Prompt: // return assay outcome for C=C(C)C(=O)[O][Sn]([CH2]CCC)([CH2]CCC)[CH2]CCC
Response: label 1

Prompt: // return assay outcome for O=C(O)C(F)(F)C(F)(F)C(F)(F)C(F)(F)C(F)(F)C(F)(F)F
Response: label 0

Prompt: // return assay outcome for Nc1ncc([N+](=O)[O-])s1
Response: label 0
